- Tested on: ragweed (common ragweed, Ambrosia elatior)
- assay_text: Test A postemergence
- Assay type: in vivo
- experimental_context: Ambrosia artemisiifolia, post-emergence, 240 h, 125 g ai/ha, Postemergence, visual rating about 10 d after treatment; read-out: Ragweed plant response rating (0 to 100 scale)
metric_name: pest or weed control at 125 g/ha (%)
Express it in %; write the number only.

Request: State the recorded pest or weed control at 125 g/ha for this entry: CSc1ccccc1NC(=O)[C@H]1C(=O)N(C)C[C@@H]1c1ccc(F)c(C)c1 [Compound 1312]
Result: 0

Request: Consider the compound O=C1NC[C@H](c2cccc(C(F)(F)F)c2)[C@H]1C(=O)Nc1ccccc1-n1cncn1 [Compound 1290] and give its measured pest or weed control at 125 g/ha.
Result: 0

Request: Returns the measured pest or weed control at 125 g/ha for the input compound. Input: Cc1cccc([C@H]2CN(C)C(=O)[C@@H]2C(=O)Nc2cccnc2F)c1 [Compound 1345]
Result: 0

Request: # lookup: pest or weed control at 125 g/ha of CN1C[C@H](c2ccc(C(F)(F)F)cc2)[C@@H](C(=O)Nc2ccccc2-n2cccn2)C1=O [Compound 1283]
Result: 0

Request: Could you tell me which pest or weed control at 125 g/ha is on file for O=C1NC[C@H](c2nccc(C(F)(F)F)n2)[C@H]1C(=O)Nc1ccccc1F [Compound 1304] ?
Result: 0

Request: Give its pest or weed control at 125 g/ha value. Item: O=C1NC[C@H](c2cc(Br)cc(Br)c2)[C@H]1C(=O)Nc1cccc(F)c1F [Compound 1366]
Result: 0

Request: Record request: pest or weed control at 125 g/ha value, item Cc1cc(F)cc([C@H]2CNC(=O)[C@@H]2C(=O)Nc2ccccc2S(C)(=O)=O)c1 [Compound 1307]
Result: 0

Request: Data request, read-out pest or weed control at 125 g/ha, for COc1c([C@H]2CN(C)C(=O)[C@@H]2C(=O)Nc2ccccc2SC)cccc1C(F)(F)F [Compound 1340]
Result: 0

Request: pest or weed control at 125 g/ha lookup needed for CN1C[C@H](c2csc3c2CCC(F)(F)C3)[C@@H](C(=O)Nc2ccc(F)c(F)c2F)C1=O (racemic) [Compound 1368] , thanks.
Result: 0

Request: Find the recorded pest or weed control at 125 g/ha belonging to CN1C[C@H](c2csc3c2CCC3)[C@@H](C(=O)Nc2ccccc2F)C1=O [Compound 1277] and report it.
Result: 30

Request: Would you kindly share the measured pest or weed control at 125 g/ha for CN1C[C@H](c2ccc(C(F)(F)F)nc2)[C@@H](C(=O)Nc2ccc(F)c(F)c2F)C1=O [Compound 1373] ?
Result: 60

====

- Tested on: barnyardgrass (Echinochloa crus-galli)
- assay_text: Test G Post-Emergence Protocol
- Format: in vivo
- experimental_context: Echinochloa crus-galli, post-emergence, 312 h, 15.625 g ai/ha, evaluated after 13 days (100=total damage to plant; 0=no damage to plant), read-out: Barnyardgrass damage rating
For each of the compounds below, state its pest or weed control at 15.625 g/ha.
Could you give the number and then its unit, please?

Request: Quick check: pest or weed control at 15.625 g/ha on barnyardgrass (Echinochloa crus-galli), item Cc1cc(NC(=O)[C@@H]2C(=O)N(C)C[C@H]2c2ccc(C(F)(F)F)cc2)on1 (racemic) ?
Result: 0%

Request: pest or weed control at 15.625 g/ha of CN1C[C@@H](c2ccc(C(F)(F)F)cc2)[C@H](C(=O)Nc2ncc[nH]2)C1=O (racemic) on barnyardgrass (Echinochloa crus-galli)?
Result: 0%

Request: // map CSc1ccncc1NC(=O)[C@H]1C(=O)N(C)C[C@@H]1c1ccc(C(F)(F)F)cc1 (racemic) to recorded pest or weed control at 15.625 g/ha (system: barnyardgrass (Echinochloa crus-galli))
Result: 0%

Request: What is its pest or weed control at 15.625 g/ha for barnyardgrass (Echinochloa crus-galli)? Entry: Cc1ccc([C@@H]2CN(C)C(=O)[C@H]2C(=O)Nc2cccc(F)c2F)cc1Cl (racemic)
Result: 30%

Request: API: value(readout= pest or weed control at 15.625 g/ha, system= barnyardgrass (Echinochloa crus-galli), query= Cc1csc(NC(=O)[C@@H]2C(=O)N(C)C[C@H]2c2ccc(C(F)(F)F)cc2)c1C#N (racemic) )
Result: 10%

Request: Provide the documented pest or weed control at 15.625 g/ha with barnyardgrass (Echinochloa crus-galli) as the system for CN1C[C@H](c2ccc(C(F)(F)F)c(C(F)(F)F)c2)[C@@H](C(=O)Nc2ccccc2S(C)(=O)=O)C1=O (racemic)
Result: 0%

Request: Recorded pest or weed control at 15.625 g/ha for CN1C[C@@H](c2ccc(C(F)(F)F)cc2)[C@H](C(=O)Nc2ncc(C(F)(F)F)s2)C1=O (racemic) with barnyardgrass (Echinochloa crus-galli), please?
Result: 0%
